Data provenance is patent US8450317B2.

- target.system: CXCR3 (Macaca fascicularis, UniProt A0A2K5UV19)
- Sequence (A0A2K5UV19 entry or part of it): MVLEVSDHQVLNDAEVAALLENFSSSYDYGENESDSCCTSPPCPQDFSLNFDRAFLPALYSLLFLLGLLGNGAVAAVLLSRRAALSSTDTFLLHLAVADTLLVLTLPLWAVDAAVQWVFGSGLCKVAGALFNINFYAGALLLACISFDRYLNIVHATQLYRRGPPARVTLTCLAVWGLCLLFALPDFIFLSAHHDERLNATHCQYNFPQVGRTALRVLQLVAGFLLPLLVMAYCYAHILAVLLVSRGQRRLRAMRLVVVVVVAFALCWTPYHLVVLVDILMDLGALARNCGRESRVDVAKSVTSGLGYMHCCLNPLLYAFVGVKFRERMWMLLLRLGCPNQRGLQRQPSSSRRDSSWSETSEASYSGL
- assay.comment: functional cellular assay measuring calcium flux in CXCR3 transfected cells (block of CXCR3/IP-10 interaction)
- Format: cell-based, Cyno
- experimental.conditions: IP-10 induced intracellular calcium flux; Cyno-CHO cells stably expressing recombinant CXCR3 and G-alpha-16; IP-10 at EC80; read-out: IC50
measured.property: pIC50
# log scale: pIC50 equals minus log10 of the concentration in mol/L

## Task Value lookup for pIC50; key = `COc1ncc(-c2ccccc2N2CCN(C(=O)Cn3ccc4cccnc43)CC2)cn1`
## Result 8.22

## Task Value lookup for pIC50; key = `O=C(Cn1ccc2cccnc21)N1CCC(c2ccccc2-c2cnc(N3CCOCC3)nc2)CC1`
## Result 7.96

## Task Value lookup for pIC50; key = `COc1cc(NC(=O)c2cc(F)ccc2N2CCN(C(=O)Cn3ccc4cccnc43)[C@@H](C)C2)ccn1`
## Result 7.74

## Task Value lookup for pIC50; key = Cc1cc(C)n(CC(=O)N2CCN(c3ccccc3-c3cnc(N4CCC5CCCCC5C4)nc3)CC2)n1 (centres unmarked)
## Result 7.68

## Task Value lookup for pIC50; key = `Cc1cc(C)n(CC(=O)N2CCN(c3ccc(F)cc3-c3cnc(N4CCN(C)CC4)nc3)CC2)n1`
## Result 7.40
